Assay: recombinant UMI read abundance after kanamycin selection (control-corrected) (log10(CPM+1)); higher = more efficient recombination; extreme values may be limits of the assay; sequences stand for … in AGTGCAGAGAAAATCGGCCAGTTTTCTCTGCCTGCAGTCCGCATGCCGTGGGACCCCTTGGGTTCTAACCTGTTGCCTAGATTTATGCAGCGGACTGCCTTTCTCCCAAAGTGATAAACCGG…AGGTTGGTTTCACT; site = the 11-nt donor
Short version: recombinant UMI read abundance (log10) at least 0.02 is Condition met, less is Condition not met.

{"BIOSEQUENCE": "ATAAGTCCATGGACCGGTTTTCCCGGTAATCCGTATTTGAC (site ATAAGCCCTGT)", "DISCRETE_LABEL": "Condition met"}
{"BIOSEQUENCE": "CAAGCTCCATGGACCGGTTTTCCCGGTAATCCGTATTTGTG (site CAAGCACCTCA)", "DISCRETE_LABEL": "Condition met"}
{"BIOSEQUENCE": "GAGGTCACATGGACCGGTTTTCCCGGTAATCCGTATTTGAT (site GAGGTCACTAT)", "DISCRETE_LABEL": "Condition met"}
{"BIOSEQUENCE": "ACAGAATCATGGACCGGTTTTCCCGGTAATCCGTATTTGGA (site ACAGTATCTTG)", "DISCRETE_LABEL": "Condition not met"}
{"BIOSEQUENCE": "TTGTGCTCATGGACCGGTTTTCCCGGTAATCCGTATTTGGG (site TTGTGCTCTCC)", "DISCRETE_LABEL": "Condition not met"}
{"BIOSEQUENCE": "GCCCCGCCATGGACCGGTTTTCCCGGTAATCCGTATTTGTA (site GCCGCGCCTTA)", "DISCRETE_LABEL": "Condition met"}
{"BIOSEQUENCE": "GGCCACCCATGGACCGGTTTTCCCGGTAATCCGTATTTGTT (site GGCCACCCTAA)", "DISCRETE_LABEL": "Condition not met"}
{"BIOSEQUENCE": "TCTACACCATGGACCGGTTTTCCCGGTAATCCGTATTTGAC (site TTTACACCTGT)", "DISCRETE_LABEL": "Condition not met"}
{"BIOSEQUENCE": "GTTCTTCCATGGACCGGTTTTCCCGGTAATCCGTATTTGGT (site GTTATTCCTAC)", "DISCRETE_LABEL": "Condition not met"}

###

Test: recombinant UMI read abundance after kanamycin selection (control-corrected) (log10(CPM+1)); higher = more efficient recombination; extreme values may be limits of the assay; sequences stand for … in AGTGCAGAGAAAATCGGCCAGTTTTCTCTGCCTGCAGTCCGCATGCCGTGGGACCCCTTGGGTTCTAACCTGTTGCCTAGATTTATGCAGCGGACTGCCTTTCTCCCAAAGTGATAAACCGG…AGGTTGGTTTCACT; site = the 11-nt donor
Values of recombinant UMI read abundance (log10) greater than or equal to 0.007 map to yes (1); values below map to no (0).

{"BIOSEQUENCE": "ATGAAGGCATGGACCGGTTTTCCCGGTAATCCGTATTTGGC (site ATGTAGGCTGC)", "DISCRETE_LABEL": "yes (1)"}
{"BIOSEQUENCE": "CAAGTCACATGGACCGGTTTTCCCGGTAATCCGTATTTGGC (site CAAGTCACTTC)", "DISCRETE_LABEL": "yes (1)"}
{"BIOSEQUENCE": "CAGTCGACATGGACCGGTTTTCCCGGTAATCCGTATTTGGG (site CAGCCGACTCC)", "DISCRETE_LABEL": "yes (1)"}
{"BIOSEQUENCE": "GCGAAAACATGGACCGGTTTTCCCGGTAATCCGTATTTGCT (site GCGAAAACTAA)", "DISCRETE_LABEL": "yes (1)"}
{"BIOSEQUENCE": "CGGGAGCCATGGACCGGTTTTCCCGGTAATCCGTATTTGAT (site CGGGATCCTAT)", "DISCRETE_LABEL": "yes (1)"}
{"BIOSEQUENCE": "TTTGCGGCATGGACCGGTTTTCCCGGTAATCCGTATTTGCG (site TTTGCGGCTGG)", "DISCRETE_LABEL": "no (0)"}
{"BIOSEQUENCE": "TGATAGACATGGACCGGTTTTCCCGGTAATCCGTATTTGGA (site TGATAGACTTC)", "DISCRETE_LABEL": "yes (1)"}
{"BIOSEQUENCE": "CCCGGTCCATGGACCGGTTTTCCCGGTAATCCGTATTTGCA (site CCCGGTCCTGG)", "DISCRETE_LABEL": "no (0)"}
{"BIOSEQUENCE": "TGTATACCATGGACCGGTTTTCCCGGTAATCCGTATTTGAC (site TGTAAACCTGT)", "DISCRETE_LABEL": "no (0)"}
{"BIOSEQUENCE": "TCAGGGACATGGACCGGTTTTCCCGGTAATCCGTATTTGCG (site TCAGGGACTCG)", "DISCRETE_LABEL": "yes (1)"}
{"BIOSEQUENCE": "CCCTTGCCATGGACCGGTTTTCCCGGTAATCCGTATTTGCC (site CCCTTGCCTGG)", "DISCRETE_LABEL": "no (0)"}
{"BIOSEQUENCE": "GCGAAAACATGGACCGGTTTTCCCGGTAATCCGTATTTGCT (site GCGAAATCTAG)", "DISCRETE_LABEL": "yes (1)"}
{"BIOSEQUENCE": "GGCCCAACATGGACCGGTTTTCCCGGTAATCCGTATTTGTA (site GGACCAACTTA)", "DISCRETE_LABEL": "yes (1)"}
{"BIOSEQUENCE": "AGAACCCCATGGACCGGTTTTCCCGGTAATCCGTATTTGGT (site AGAACCCCTAC)", "DISCRETE_LABEL": "yes (1)"}
{"BIOSEQUENCE": "CATGCAGCATGGACCGGTTTTCCCGGTAATCCGTATTTGAG (site CATGCAGCTCT)", "DISCRETE_LABEL": "yes (1)"}
{"BIOSEQUENCE": "CTCACAACATGGACCGGTTTTCCCGGTAATCCGTATTTGTG (site CTCACAACTCA)", "DISCRETE_LABEL": "no (0)"}
{"BIOSEQUENCE": "GTGGAGCCATGGACCGGTTTTCCCGGTAATCCGTATTTGTG (site GTGGAGACTCA)", "DISCRETE_LABEL": "yes (1)"}

###

Assay: recombinant barcode read abundance after kanamycin selection (control-corrected) (log10(CPM+1)); higher = more efficient recombination; sequences stand for … in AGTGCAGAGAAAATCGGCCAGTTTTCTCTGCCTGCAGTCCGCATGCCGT…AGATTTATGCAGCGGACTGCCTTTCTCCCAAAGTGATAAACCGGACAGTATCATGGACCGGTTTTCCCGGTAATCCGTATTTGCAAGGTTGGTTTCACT; site = the 11-nt target
Class (required): determined from recombinant barcode read abundance (log10); valid ranges are zone 1 = under 0.2, zone 2 = from 0.2 up to 0.9, zone 3 = 0.9 and over

{"BIOSEQUENCE": "CTAGCCTCTTGGGTTCTAACCTGTTGCAT (site CTATCCTCTAT)", "DISCRETE_LABEL": "zone 1"}
{"BIOSEQUENCE": "CGTTGCCCTTGGGTTCTAACCTGTTGCCT (site CCTTGCCCTAG)", "DISCRETE_LABEL": "zone 1"}
{"BIOSEQUENCE": "AAGAAAGCTTGGGTTCTAACCTGTTGCCT (site AAGACAGCTAG)", "DISCRETE_LABEL": "zone 1"}
{"BIOSEQUENCE": "AGAACACCTTGGGTTCTAACCTGTTGCTT (site AGAACACCTAA)", "DISCRETE_LABEL": "zone 2"}
{"BIOSEQUENCE": "TAGCCGGCTTGGGTTCTAACCTGTTGCAG (site TAGCCGGCTCT)", "DISCRETE_LABEL": "zone 3"}
{"BIOSEQUENCE": "ACAAGGGCTTGGGTTCTAACCTGTTGCTG (site ACAAGGGCTCA)", "DISCRETE_LABEL": "zone 3"}
{"BIOSEQUENCE": "TCCGTCTCTTGGGTTCTAACCTGTTGCCA (site TCCGTCTCTCG)", "DISCRETE_LABEL": "zone 2"}
{"BIOSEQUENCE": "GTTTAAACTTGGGTTCTAACCTGTTGCCT (site GTTTAAACTAG)", "DISCRETE_LABEL": "zone 2"}
{"BIOSEQUENCE": "GGCGGTACTTGGGTTCTAACCTGTTGCCT (site GGCGGTACTAG)", "DISCRETE_LABEL": "zone 3"}
